biological target: one or more of HDAC-1, HDAC-2, HDAC-3, HDAC-4, HDAC-5, HDAC-6, HDAC-7, HDAC-8, HDAC-9, HDAC-10 and HDAC-11; test: Inhibition of Histone Deacetylase Enzymatic Activity (Boc-Lys(Ac)-AMC substrate, Fluor-de-Lys developer); assay type: biochemical; conditions: Table 8; read-out: HDAC Inhibition (IC50 μM) HDAC Enzyme
I'd be grateful if you could share measured IC50 for these entries.

smiles str	IC50
CCN1c2ccccc2N=C(c2ccc(C(=O)NO)cc2)c2cccnc21	< 0.05 µM
O=C(NO)c1ccc(C2=Nc3ccccc3Oc3cc(N4CCOCC4)ccc32)cc1	0.1 to 1 µM
O=C(NO)c1ccc(C2=Nc3ccccc3Oc3c(OC(F)(F)F)cccc32)cc1	0.1 to 1 µM

Lab note: each compound below needs its IC50 filled in.
1. Cc1ccc2c(c1)N=C(c1ccc(C(=O)NO)cc1)c1ccccc1O2
2. COc1ccc2c(c1)C(c1ccc(C(=O)NO)cc1)=Nc1ccccc1O2

-- reply
1: 0.05 to 0.1 µM; 2: 0.1 to 1 µM

Just for reference, patent US20170000749A1 is where these values come from.
